// provenance: patent US20220281830A1

assay: Rat in vivo study: plasma pharmacokinetics of MRE-269 after oral capsule dosing; set-up: species or system Sprague-Dawley rat; conditions: MRE-269 in plasma; male Sprague-Dawley rat, oral, HPMC capsule, 1 mg/capsule/body; read-out: Cmax
experimental.readout: Cmax (ng/mL)
Respond numerically; units are ng/mL and should not be typed.

Problem: Identify measured Cmax associated with CC(C)N(CCCCOCC(=O)O)c1cnc(-c2ccccc2)c(-c2ccccc2)n1 [MRE-269, reference compound]
Solution: 475

* * *

assay: Rat in vivo study: plasma pharmacokinetics of MRE-269 after oral capsule dosing; design: species or system Sprague-Dawley rat; conditions: MRE-269 in plasma; male Sprague-Dawley rat, oral, HPMC capsule, 1 mg/capsule/body; read-out: tmax
experimental.readout: tmax (h)
Response body: numeric value in h, unit text excluded.

Problem: Give recorded tmax. CC(C)N(CCCCOCC(=O)O)c1cnc(-c2ccccc2)c(-c2ccccc2)n1 [MRE-269, reference compound]
Solution: 6.5
